Assay Target: Phosphatidylinositol 3,4,5-trisphosphate 5-phosphatase 1 (Homo sapiens)
Sequence (Q92835 whole entry): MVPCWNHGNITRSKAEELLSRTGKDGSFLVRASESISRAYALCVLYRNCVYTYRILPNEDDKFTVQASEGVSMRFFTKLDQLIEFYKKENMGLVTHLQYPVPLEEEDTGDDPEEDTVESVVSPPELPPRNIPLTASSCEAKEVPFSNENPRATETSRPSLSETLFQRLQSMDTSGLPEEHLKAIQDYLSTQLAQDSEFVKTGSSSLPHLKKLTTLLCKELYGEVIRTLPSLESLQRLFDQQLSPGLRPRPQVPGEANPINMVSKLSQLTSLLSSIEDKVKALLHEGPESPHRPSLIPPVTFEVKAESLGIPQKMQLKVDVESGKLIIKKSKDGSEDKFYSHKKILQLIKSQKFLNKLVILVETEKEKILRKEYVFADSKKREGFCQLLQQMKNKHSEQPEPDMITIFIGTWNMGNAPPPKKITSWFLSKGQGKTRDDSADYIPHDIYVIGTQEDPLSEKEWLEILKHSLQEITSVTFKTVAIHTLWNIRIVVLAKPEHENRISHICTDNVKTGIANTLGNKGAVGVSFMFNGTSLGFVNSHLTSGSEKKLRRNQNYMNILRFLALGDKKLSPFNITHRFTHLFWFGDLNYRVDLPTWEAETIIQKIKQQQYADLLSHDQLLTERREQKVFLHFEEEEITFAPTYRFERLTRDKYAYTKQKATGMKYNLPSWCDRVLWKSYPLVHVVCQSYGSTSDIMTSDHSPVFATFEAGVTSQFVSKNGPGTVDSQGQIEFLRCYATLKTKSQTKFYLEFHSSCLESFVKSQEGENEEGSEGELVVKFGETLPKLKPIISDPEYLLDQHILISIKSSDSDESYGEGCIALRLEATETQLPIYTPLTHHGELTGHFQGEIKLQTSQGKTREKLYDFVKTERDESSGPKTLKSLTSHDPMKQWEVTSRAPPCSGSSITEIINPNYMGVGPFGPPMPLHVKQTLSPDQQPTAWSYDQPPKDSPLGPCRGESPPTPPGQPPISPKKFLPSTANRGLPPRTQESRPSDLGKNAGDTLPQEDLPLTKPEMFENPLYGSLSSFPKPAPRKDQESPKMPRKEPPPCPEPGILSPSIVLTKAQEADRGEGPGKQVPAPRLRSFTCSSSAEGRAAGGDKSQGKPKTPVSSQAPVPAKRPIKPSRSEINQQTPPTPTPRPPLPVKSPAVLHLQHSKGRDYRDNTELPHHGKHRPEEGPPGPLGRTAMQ
Method Summary: Inhibition of human SHIP-1 (397 to 715 residues) catalytic domain expressed in Rosetta DE3 BL21 cells using 1-(1,2-dioctanoylphosphatidyl) inositol-3,4,5-trisphosphate as substrate by malachite green based spectramax microplate reader analysis
pIC50: −log10 of the molar value.
Measurement Name: pIC50

// worked examples, pIC50 included
* N#CC1=C2N=C(N)c3ccccc3N2C2=C(C(=O)CCC2)C1c1ccc(Cl)cc1Cl (stereo not given) | 4.41
* N#CC1=C2N=C(N)c3ccccc3N2C2=C(C(=O)CCC2)C1c1cccc(Cl)c1 (stereo not given) | 4.81

(1) CC(=O)C1=C(C)Nc2sc(C(=O)c3ccc(Cl)c(Cl)c3)c(N)c2C1c1cccnc1 (stereo not given)
(2) CC(C)c1ccc(C2C(C#N)=C3N=C(N)c4ccccc4N3C3=C2C(=O)CC(C)(C)C3)cc1 (stereo not given)
Would you kindly point out which of 1 and 2 has the smaller pIC50 figure? Answer = label.
1
(1: 4.33, 2: 4.99)
